The measured values listed here are drawn from patent US20220177596A1.

The following binders are listed with their measured pKd values.
Molecular target: T1, human-CD40 monomer (human, UniProt P25942 21-193, limits assumed)
T1 construct: also called hCD40-monomer; human-CD40-monomer protein
T1 sequence (P25942 21-193 limits assumed): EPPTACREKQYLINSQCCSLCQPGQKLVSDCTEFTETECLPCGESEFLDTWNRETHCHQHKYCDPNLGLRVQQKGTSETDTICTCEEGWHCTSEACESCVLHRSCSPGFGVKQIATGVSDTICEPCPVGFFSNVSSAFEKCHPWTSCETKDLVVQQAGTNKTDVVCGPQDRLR
Test: SPR 2 pt screen, Ab on protein A
Convention used: pKd is expressed as -log10 of the molar concentration.

humanized Y1238 hz47 (hz-HC10 / hz-LC2), IgG1.3f (antibody, V domains shown, IgG1.3f heavy constant, common CL; expression supernatant; also called Sup 47) VH: QVQLVQSGAEVKKPGASVKVSCKASGYAFTNYLIEWVRQRPGQGLEWMGVINPGSGGTNYNEKFKGRVTMTRDKSISTAYMELSRLRSDDTAVYYCARSQLGRRFDYWGQGTLVTVSS VL: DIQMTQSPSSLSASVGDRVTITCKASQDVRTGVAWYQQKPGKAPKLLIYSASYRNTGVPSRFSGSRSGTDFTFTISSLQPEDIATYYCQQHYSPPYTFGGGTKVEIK: 8.06
humanized Y1238 hz6 (hz-HC2 / hz-LC1), IgG1.3f (antibody, V domains shown, IgG1.3f heavy constant, common CL; expression supernatant; also called Sup 6) VH: QVQLVQSGAEVKKPGASVKVSCKASGYAFTNYLIEWVRQAPGQGLEWMGVINPGSGGTNYNEKFKGRVTMTADTSISTAYMELSRLRSDDTAVYYCARSQLGRRFDYWGQGTLVTVSS VL: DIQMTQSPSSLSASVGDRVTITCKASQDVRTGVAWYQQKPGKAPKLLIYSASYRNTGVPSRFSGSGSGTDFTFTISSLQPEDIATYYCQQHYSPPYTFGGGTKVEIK: 8.57

Here is another binder to look at.
# pKd of humanized Y1238 hz42 (hz-HC9 / hz-LC2), IgG1.3f (antibody, V domains shown, IgG1.3f heavy constant, common CL; expression supernatant; also called Sup 42) VH: QVQLVQSGAEVVKPGASVKVSCKASGYAFTNYLIEWVRQRPGQGLEWMGVINPGSGGTNYNEKFKGRVTLTADKSSSTAYMQLSRLRSDDTAVYFCARSQLGRRFDYWGQGTTVTVSS VL: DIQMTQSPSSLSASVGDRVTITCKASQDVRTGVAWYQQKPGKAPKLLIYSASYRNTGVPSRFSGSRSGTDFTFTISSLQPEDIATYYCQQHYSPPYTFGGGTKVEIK = 8.27
